Biodistribution: Liver: recorded values
- TEST_DESCRIPTION: In vivo biodistribution in mice
- Design: species or system normal CD-1 male mice
- EXPERIMENTAL_CONDITIONS: iv, 30 min (0.5 hr) post injection
# number only, unit % dose/g dropped from output

Known Biodistribution: Liver results, listed for orientation:
[[record]]
compound = "O=C([O-])CN(CCN(CC(=O)[O-])Cc1cc(CCC(=O)N[C@@H](CC(=O)O)C(=O)O)ccc1[O-])Cc1cc(CCC(=O)NC(P(=O)(O)O)P(=O)(O)O)ccc1[O-].[68Ga+3] [[^68Ga]1e]"
measure_name = "Biodistribution: Liver"
observed_result = 0.27

[[record]]
compound = "O=C([O-])CN(CCN(CC(=O)[O-])Cc1cc(CCC(=O)NC(P(=O)(O)O)P(=O)(O)O)ccc1[O-])Cc1cc(CCC(=O)NC2C(O)OC(CO)C(O)C2O)ccc1[O-].[68Ga+3] (stereo not shown) [[^68Ga]1b]"
measure_name = "Biodistribution: Liver"
observed_result = 1.20

[[record]]
compound = "O=C([O-])CN(CCN(CC(=O)[O-])Cc1cc(CCC(=O)NC(P(=O)(O)O)P(=O)(O)O)ccc1[O-])Cc1cc(CCC(=O)O)ccc1[O-].[68Ga+3] [[^68Ga]1a]"
measure_name = "Biodistribution: Liver"
observed_result = 0.32


In the following, a different compound is considered.
Task item: Provide one value: measured Biodistribution: Liver of O=C([O-])CN(CCN(CC(=O)[O-])Cc1cc(CCC(=O)NC(P(=O)(O)O)P(=O)(O)O)ccc1[O-])Cc1cc(CCC(=O)NCC(=O)O)ccc1[O-].[68Ga+3] [[^68Ga]1c]
Reply: 2.21

* * *

- TEST_DESCRIPTION: In vivo biodistribution in mice
- Parameters: species or system normal CD-1 male mice
- EXPERIMENTAL_CONDITIONS: iv, 30 min (0.5 hr) post injection
Decision: Biodistribution: Liver beneath 0.4 % dose/g gives Fulfilled; Biodistribution: Liver meeting or exceeding 0.4 % dose/g gives Not fulfilled.

Field: example entries. Status: answers known.
[[record]]
molecule = "O=C([O-])CN(CCN(CC(=O)[O-])Cc1cc(CCC(=O)NC(P(=O)(O)O)P(=O)(O)O)ccc1[O-])Cc1cc(CCC(=O)NCCCCCC(=O)NCCCC[C@H](NC(=O)N[C@@H](CCC(=O)O)C(=O)O)C(=O)O)ccc1[O-].[68Ga+3] [[^68Ga]1g]"
category_label = "Fulfilled"

[[record]]
molecule = "[18F-].[Na+] [[^18F]NaF, reference compound]"
category_label = "Not fulfilled"

[[record]]
molecule = "O=C([O-])CN(CCN(CC(=O)[O-])Cc1cc(CCC(=O)O)ccc1[O-])Cc1cc(CCC(=O)O)ccc1[O-].[68Ga+3] [[^68Ga]HBED-CC, reference compound]"
category_label = "Fulfilled"

[[record]]
molecule = "C[C@H](NC(=O)CCc1ccc([O-])c(CN(CCN(CC(=O)[O-])Cc2cc(CCC(=O)NC(P(=O)(O)O)P(=O)(O)O)ccc2[O-])CC(=O)[O-])c1)C(=O)O.[68Ga+3] [[^68Ga]1d]"
category_label = "Fulfilled"

[[record]]
molecule = "O=C([O-])CN(CCN(CC(=O)[O-])Cc1cc(CCC(=O)NC(P(=O)(O)O)P(=O)(O)O)ccc1[O-])Cc1cc(CCC(=O)NC(P(=O)(O)O)P(=O)(O)O)ccc1[O-].[68Ga+3] [[^68Ga]2]"
category_label = "Not fulfilled"

[[record]]
molecule = "O=C([O-])CN(CCN(CC(=O)[O-])Cc1cc(CCC(=O)NC(P(=O)(O)O)P(=O)(O)O)ccc1[O-])Cc1cc(CCC(=O)NCCNC(=O)CN2CCN(CC(=O)O)CCN(CC(=O)O)CCN(CC(=O)O)CC2)ccc1[O-].[68Ga+3] [[^68Ga]1h]"
category_label = "Fulfilled"


Task item: For this molecule, is Biodistribution: Liver lower than 0.4 % dose/g? O=C(O)CN1CCN(CC(=O)O)CCN(CC(=O)NC(P(=O)(O)O)P(=O)(O)O)CCN(CC(=O)O)CC1.[68Ga] [[^68Ga]BPAMD, reference compound]
Reply: Fulfilled

Task item: Lab note: Biodistribution: Liver threshold 0.4 % dose/g. Does this molecule come in strictly under it? O=C([O-])CN1CCN(CC(=O)[O-])CCN(CC(=O)NCCNC(=O)CCc2ccc(O)c(CN(CCN(CC(=O)O)Cc3cc(CCC(=O)NC(P(=O)(O)O)P(=O)(O)O)ccc3O)CC(=O)O)c2)CCN(CC(=O)[O-])CC1.[177Lu+3] [[^177Lu]1h]
Reply: Fulfilled

Task item: I wonder whether O=C([O-])CN(CCN(CC(=O)[O-])Cc1cc(CCC(=O)N[C@@H](CCC(=O)O)C(=O)O)ccc1[O-])Cc1cc(CCC(=O)NC(P(=O)(O)O)P(=O)(O)O)ccc1[O-].[68Ga+3] [[^68Ga]1f] has Biodistribution: Liver below 0.4 % dose/g. Can you tell?
Reply: Fulfilled

Task item: Decide: Biodistribution: Liver of O=C([O-])CN(CCN(CC(=O)[O-])Cc1cc(CCC(=O)NC(P(=O)(O)O)P(=O)(O)O)ccc1[O-])Cc1cc(CCC(=O)NCCCNC(=O)CCc2ccc(O)c(CN(CCN(CC(=O)O)Cc3cc(CCC(=O)NC(P(=O)(O)O)P(=O)(O)O)ccc3O)CC(=O)O)c2)ccc1[O-].[68Ga+3] [[^68Ga]3] strictly below 0.4 % dose/g?
Reply: Not fulfilled

* * *

- TEST_DESCRIPTION: In vivo biodistribution in mice
- Design: species or system normal CD-1 male mice
- EXPERIMENTAL_CONDITIONS: iv, 60 min (1 hr) post injection
So basically: is Biodistribution: Lung under 0.2 % dose/g? Then class 1. Not under? Then class 0.

Worked examples follow.
[[record]]
compound = "O=C(O)CN1CCN(CC(=O)O)CCN(CC(=O)NC(P(=O)(O)O)P(=O)(O)O)CCN(CC(=O)O)CC1.[68Ga] [[^68Ga]BPAMD, reference compound]"
category_label = "class 0"

[[record]]
compound = "O=C([O-])CN(CCN(CC(=O)[O-])Cc1cc(CCC(=O)NC(P(=O)(O)O)P(=O)(O)O)ccc1[O-])Cc1cc(CCC(=O)NCCCNC(=O)CCc2ccc(O)c(CN(CCN(CC(=O)O)Cc3cc(CCC(=O)NC(P(=O)(O)O)P(=O)(O)O)ccc3O)CC(=O)O)c2)ccc1[O-].[68Ga+3] [[^68Ga]3]"
category_label = "class 0"

[[record]]
compound = "[18F-].[Na+] [[^18F]NaF, reference compound]"
category_label = "class 1"

[[record]]
compound = "O=C([O-])CN(CCN(CC(=O)[O-])Cc1cc(CCC(=O)NC(P(=O)(O)O)P(=O)(O)O)ccc1[O-])Cc1cc(CCC(=O)NC(P(=O)(O)O)P(=O)(O)O)ccc1[O-].[68Ga+3] [[^68Ga]2]"
category_label = "class 0"

[[record]]
compound = "O=C([O-])CN(CCN(CC(=O)[O-])Cc1cc(CCC(=O)O)ccc1[O-])Cc1cc(CCC(=O)O)ccc1[O-].[68Ga+3] [[^68Ga]HBED-CC, reference compound]"
category_label = "class 1"


Task item: Below 0.2 % dose/g on Biodistribution: Lung? Entry O=C([O-])CN(CCN(CC(=O)[O-])Cc1cc(CCC(=O)N[C@@H](CC(=O)O)C(=O)O)ccc1[O-])Cc1cc(CCC(=O)NC(P(=O)(O)O)P(=O)(O)O)ccc1[O-].[68Ga+3] [[^68Ga]1e]
Reply: class 1

* * *

- TEST_DESCRIPTION: In vivo biodistribution in mice
- Set-up: species or system normal CD-1 male mice
- EXPERIMENTAL_CONDITIONS: iv, 2 min post injection
MEASURE_NAME: Biodistribution: Brain (% dose/g)
The response must be a number in % dose/g with no trailing unit.

Field: example entries. Status: answers known.
[[record]]
compound = "O=C(O)CN1CCN(CC(=O)O)CCN(CC(=O)NC(P(=O)(O)O)P(=O)(O)O)CCN(CC(=O)O)CC1.[68Ga] [[^68Ga]BPAMD, reference compound]"
observed_result = 0.26

[[record]]
compound = "O=C([O-])CN(CCN(CC(=O)[O-])Cc1cc(CCC(=O)NC(P(=O)(O)O)P(=O)(O)O)ccc1[O-])Cc1cc(CCC(=O)NCC(=O)O)ccc1[O-].[68Ga+3] [[^68Ga]1c]"
observed_result = 0.27

[[record]]
compound = "O=C([O-])CN(CCN(CC(=O)[O-])Cc1cc(CCC(=O)NC(P(=O)(O)O)P(=O)(O)O)ccc1[O-])Cc1cc(CCC(=O)NC(P(=O)(O)O)P(=O)(O)O)ccc1[O-].[68Ga+3] [[^68Ga]2]"
observed_result = 0.30


Task item: Please supply the value of reported Biodistribution: Brain for the item O=C([O-])CN(CCN(CC(=O)[O-])Cc1cc(CCC(=O)NC(P(=O)(O)O)P(=O)(O)O)ccc1[O-])Cc1cc(CCC(=O)O)ccc1[O-].[68Ga+3] [[^68Ga]1a]
Reply: 0.31

Task item: Provide one value: measured Biodistribution: Brain of O=C([O-])CN(CCN(CC(=O)[O-])Cc1cc(CCC(=O)N[C@@H](CCC(=O)O)C(=O)O)ccc1[O-])Cc1cc(CCC(=O)NC(P(=O)(O)O)P(=O)(O)O)ccc1[O-].[68Ga+3] [[^68Ga]1f]
Reply: 0.22

Task item: Report Biodistribution: Brain for O=C([O-])CN(CCN(CC(=O)[O-])Cc1cc(CCC(=O)O)ccc1[O-])Cc1cc(CCC(=O)O)ccc1[O-].[68Ga+3] [[^68Ga]HBED-CC, reference compound]
Reply: 0.29
